Cited source: ChEMBL document CHEMBL6083285

experiment: AUC (0 to infinity) in male Sprague-Dawley rat at 1 mg/kg, iv measured after 24 hrs by LC-MS analysis; type: ADME, organism-based; details: in vivo
testReadout: AUC(0-inf) (ng·h/mL)
Numeric only. Scale: ng·h/mL

| smilesNotation | testReadout | observedValue |
| --- | --- | --- |
| COc1cc(-c2cc(F)cc(C(C)C)c2CC(=O)NS(=O)(=O)c2cnn(C3CC3)c2)ccn1 | AUC(0-inf) | 1510 |

# ---- query molecule ----
For the molecule CC(C)c1cc(F)cc2c1CC(=O)NS(=O)(=O)c1cnn(c1)C(C)(C)COc1cc-2ccn1 , what AUC(0-inf) is on record?
4900

====

assay: Metabolic stability in mouse hepatocytes assessed as intrinsic clearance measured per 10^6 cells at 100 uM incubated upto 60 mins by UPLC-MS/MS analysis; assay type: ADME, cell-based, Hepatocyte; details: read-out: CLH
testReadout: hepatocyte CLint at 100 µM (µL/min/1e6 cells)
Numeric only. Scale: µL/min/1e6 cells

| smilesNotation | observedValue |
| --- | --- |
| CC(C)c1cc(F)cc2c1CC(=O)NS(=O)(=O)c1cnn(c1)C(C)(C)COc1cc-2ccn1 | 21 |

For the compound CC(C)c1cccc2c1CC(=O)NS(=O)(=O)c1cnn(c1)C1(CCOCC1)COc1cc-2ccn1 , what hepatocyte CLint at 100 µM is on record?
36

====

assay: Metabolic stability in human hepatocytes assessed as intrinsic clearance measured per 10^6 cells at 100 uM incubated upto 60 mins by UPLC-MS/MS analysis; type: ADME, cell-based, Hepatocyte; details: read-out: CLH
testReadout: hepatocyte CLint at 100 µM

Illustrative cases are given below, each with its answer.
| smilesNotation | observedValue |
| --- | --- |
| CC(C)c1cccc2c1CC(=O)NS(=O)(=O)c1cnn(c1)C1(CCOCC1)COc1cc-2ccn1 | < 7.7 µL/min/1e6 cells |
| CC(C)c1cc(F)cc2c1CC(=O)NS(=O)(=O)c1cnn(c1)C(C)(C)COc1cc-2ccn1 | < 8 µL/min/1e6 cells |
| COc1cc(-c2cc(F)cc(C(C)C)c2CC(=O)NS(=O)(=O)c2cnn(C3CC3)c2)ccn1 | < 8 µL/min/1e6 cells |

# ---- query compound ----
For the compound CC(C)c1c(F)ccc2c1CC(=O)NS(=O)(=O)c1cn(nc1F)C(C)(C)COc1cc-2ccn1 , what hepatocyte CLint at 100 µM is on record?
< 10.3 µL/min/1e6 cells

====

tested on: BCRP; assay: Efflux ratio of permeability in MDCK-II-BCRP cells at 5 uM incubated for 2 hrs by LC-MS/MS analysis; format: ADME, cell-based, Canis lupus familiaris; settings: dog
testReadout: efflux ratio at 2 h, 5 µM
Answer with a bare number; do not write a unit.

| smilesNotation | targetDesc | observedValue |
| --- | --- | --- |
| CC(C)c1cc(F)cc2c1CC(=O)NS(=O)(=O)c1cnn(c1)C(C)(C)COc1cc-2ccn1 | BCRP | 6 |

For the compound COc1cc(-c2cc(F)cc(C(C)C)c2CC(=O)NS(=O)(=O)c2cnn(C3CC3)c2)ccn1 , what efflux ratio at 2 h, 5 µM is on record?
38

====

Catalogue of Vd values
assay: Volume of distribution at steady state in male Sprague-Dawley rat at 1 mg/kg, iv measured after 24 hrs by LC-MS analysis; type: ADME, organism-based; settings: in vivo, read-out: Vdss

| smilesNotation | Vd |
| --- | --- |
| COc1cc(-c2cc(F)cc(C(C)C)c2CC(=O)NS(=O)(=O)c2cnn(C3CC3)c2)ccn1 | 13.3 L/kg |

# ---- query molecule ----
For the molecule CC(C)c1cc(F)cc2c1CC(=O)NS(=O)(=O)c1cnn(c1)C(C)(C)COc1cc-2ccn1 , what Vd is on record?
0.4 L/kg
